meta.source: patent US11628228B2

- Test system: S180-bearing mice
- assay_text: Bio-distribution in tumor-bearing mice
- Format: in vivo
- protocol_conditions: S180-bearing mice, tail vein, 60 min
Entries and their Lung uptake
Entry rule: numbers only, all in % ID/g.

Reference set (2 entries):
[
  {
    "compound": "O=C(CCC[N+]#[C][99Tc-5]([C]#[N+]CCCC(=O)NC1C(O)OC(CO)C(O)C1O)([C]#[N+]CCCC(=O)NC1C(O)OC(CO)C(O)C1O)([C]#[N+]CCCC(=O)NC1C(O)OC(CO)C(O)C1O)([C]#[N+]CCCC(=O)NC1C(O)OC(CO)C(O)C1O)[C]#[N+]CCCC(=O)NC1C(O)OC(CO)C(O)C1O)NC1C(O)OC(CO)C(O)C1O (stereo not drawn) [[^99mTc-(CN3DG)6]^+]",
    "Lung uptake / % ID/g": 0.23
  },
  {
    "compound": "O=C(CCCC[N+]#[C][99Tc-5]([C]#[N+]CCCCC(=O)NC1C(O)OC(CO)C(O)C1O)([C]#[N+]CCCCC(=O)NC1C(O)OC(CO)C(O)C1O)([C]#[N+]CCCCC(=O)NC1C(O)OC(CO)C(O)C1O)([C]#[N+]CCCCC(=O)NC1C(O)OC(CO)C(O)C1O)[C]#[N+]CCCCC(=O)NC1C(O)OC(CO)C(O)C1O)NC1C(O)OC(CO)C(O)C1O (stereo not drawn) [[^99mTc-(CN4DG)6]^+]",
    "Lung uptake / % ID/g": 0.40
  }
]

We now examine a further compound.
What value of Lung uptake has been reported for the following compound? O=C(CC[N+]#[C][99Tc-5]([C]#[N+]CCC(=O)NC1C(O)OC(CO)C(O)C1O)([C]#[N+]CCC(=O)NC1C(O)OC(CO)C(O)C1O)([C]#[N+]CCC(=O)NC1C(O)OC(CO)C(O)C1O)([C]#[N+]CCC(=O)NC1C(O)OC(CO)C(O)C1O)[C]#[N+]CCC(=O)NC1C(O)OC(CO)C(O)C1O)NC1C(O)OC(CO)C(O)C1O (stereo not drawn) [[^99mTc-(CN2DG)6]^+]
0.26
